Reference source: PubChem BioAssay (NCI)

Test system: SK-OV-3 ovarian
test_method_notes: NCI tumour cell line growth inhibition, 48 h
assay_readout: GI50

COc1cc(-c2nc3ccccc3s2)ccc1NC(=O)COc1ccc(Cl)cc1 ... 36.5 µM

Turning to the following compound.
# compound `COc1cc2nc(SCC(=O)Nc3cc(OC)c(OC)c(OC)c3)n(Cc3ccccc3)c(=O)c2cc1OC` ; its GI50 = 2.91 µM

====

System: RPMI-8226 leukemia
test_method_notes: NCI tumour cell line growth inhibition, 48 h
assay_readout: TGI

Consider the worked cases shown below.
CC(C)(C)OC(=O)NCCc1cccc2c1oc1c(CCC(=O)O)cccc12 ... > 100 µM
O=C(c1ccccc1)c1ccc(-n2c3ccccc3c3ccc4c(c32)C(=O)C=CC4=O)cc1 ... > 100 µM
COC1CCN(C(=O)c2cc(Cc3n[nH]c(=O)c4ccccc34)ccc2F)CC1 ... > 100 µM
CN(C)CCNC(=O)C(C)(C)Oc1ccc(C(=O)c2ccc(Cl)cc2)cc1Cl ... > 48.7 µM

Form field, TGI with RPMI-8226 leukemia, item `CO[C@@H]1C=C[C@@]23c4cc5c(cc4C(=O)O[C@H]2CN(C)[C@H]3C1)OCO5` : > 100 µM

====

A collection of molecules and their measured TGI
Tested on: SNB-19 CNS
test_method_notes: NCI tumour cell line growth inhibition, 48 h

COc1ccc(OCc2ccc3nc(-c4ccccc4)c(Cl)nc3c2)cc1 ... 68.2 µM
CN(N)c1cc(=O)[nH]c(=O)[nH]1 ... > 100 µM
CC(=O)c1cc(C(=O)c2ccc3c(c2)Sc2ccccc2N3)c2c(C)cc(C)cn12 ... > 100 µM
O=C(Nc1ccccc1)N(C1=NCC(CI)S1)c1ccc(F)cc1F (stereo not given) ... > 100 µM
COC(=O)C(C(=O)C(=O)Nc1nc(=S)[nH][nH]1)c1csc(-n2nc(-c3ccccc3)cc2-c2ccccc2)n1 (stereo not given) ... > 100 µM

Now turn to the next molecule.
The reported value for `CNC(=O)OCc1c2ccncc2c(C)c2c1[nH]c1ccccc12` in terms of TGI is 7.98 µM

====

System: ACHN renal
test_method_notes: NCI tumour cell line growth inhibition, 48 h
Label rule, in plain words: TGI of 30 µM and up is Y, under 30 µM is N.

Ask | Evaluate `O=c1oc2ccccc2c(O)c1/C=N/C(=S)NCCc1ccccc1` : TGI at minimum 30 µM?
Reply | Y

====

Tested on: HS 578T breast
test_method_notes: NCI tumour cell line growth inhibition, 48 h
assay_readout: TGI

Use the examples below as a reference point.
CN(C)c1ccc(N=C2C=CC(=[N+](C)C)C=C2)cc1 ... 29.1 µM
Cc1nnc2sc(NN)nn12 ... > 100 µM
CC(=O)Nc1ccc(-c2nc3ccccc3s2)cc1I ... > 100 µM
COc1ccc2c(CN3CCC(C(=O)O)CC3)cc3cc4c(cc3c2c1)OCO4 ... 25.8 µM
CCOC(=O)c1cnc2n(c1=N)[C@H]1CCCC[C@@H]1N2 ... > 100 µM
O=c1ccn(C2OC(CO)C(O)C2[Se]c2ccccc2)c(=O)[nH]1 (stereo unspecified) ... > 100 µM

Reported TGI for `CC(C)(C)Nc1noc(=O)n1C(C)(C)C` was > 100 µM

The compound `O=S(=O)(O)c1ccc(N=Nc2c(O)ccc3cc(Br)ccc23)cc1` showed TGI equal to > 100 µM

Entry CC1COc2c(N3CCN(C)CC3)c(F)cc3c(=O)c(C(=O)O)cn1c23 (stereo unspecified) ; TGI = > 100 µM

Record C1=C(c2ccccc2)Nc2nnnn2C1c1ccccc1 (stereo unspecified) . Reported TGI: > 100 µM

Notebook: `CC(=O)NC(c1nc2cc(C)c(C)cc2[nH]1)c1nc2cc(C)c(C)cc2[nH]1` , TGI read as 79.2 µM

====

System: K-562 leukemia
test_method_notes: NCI tumour cell line growth inhibition, 48 h; in the data active = GI50 below about 0.43 µM; inactive = the rest
Pick from T for active, F for inactive when you respond.

Consider the worked cases shown below.
CC1COc2c(N3CCN(C)CC3)c(F)cc3c(=O)c(C(=O)O)cn1c23 (centres undefined) ... F
CCOC(=O)c1c(C)n2c(=O)cc(C)c3c(O)c(O)cc1c32 ... F
COC1CCN(C(=O)c2cc(Cc3n[nH]c(=O)c4ccccc34)ccc2F)CC1 ... F

Ask | Lab log entry: NC1CCC(Nc2nc(NCc3ccc(-c4cccs4)nc3)c3ncn(C4CCCC4)c3n2)CC1 (centres undefined) — outcome as called in the assay?
Reply | T

====

Test system: CAKI-1 renal
test_method_notes: NCI tumour cell line growth inhibition, 48 h
assay_readout: GI50

NC(N)=N/N=C/c1c(-c2cc(Cl)sc2Cl)nc2sccn12 ... 7650 nM

The compound listed as `O=C1c2ccccc2S(=O)(=O)N1CSC(=S)N1CCCCC1` has a reported GI50 of > 100000 nM

Record NC1CCC(Nc2nc(NCc3ccc(-c4cccs4)nc3)c3ncn(C4CCCC4)c3n2)CC1 (stereo not given) , field GI50: 1620 nM

Lab book: GI50 of `O=[N+]([O-])c1ccc(Sc2ncnc3nc[nH]c23)c2nonc12` noted as 5970 nM

====

Each entry below carries its reported GI50.
Test system: NCI/ADR-RES ovarian
test_method_notes: NCI tumour cell line growth inhibition, 48 h

COc1cc(-c2nc3ccccc3s2)ccc1NC(=O)COc1ccc(Cl)cc1 ... 3220 nM
O=C1c2ccccc2S(=O)(=O)N1CSC(=S)N1CCCCC1 ... > 100000 nM
c1cc2[nH]ncc2cc1-c1nc2ccc3[nH]ncc3c2c2c1CCCC2 ... 2080 nM
Cn1cc(C2=C(c3cn(C)c4c([N+](=O)[O-])cccc34)C(=O)NC2=O)c2ccccc21 ... > 25000 nM

Now, please, on to the next molecule.
Recorded GI50 (molecule `COc1ccc(C(=O)c2cc(OC)c(OC)c(OC)c2)cc1/C=C/C(=O)c1ccc(OC)c(OC)c1` ): 466 nM

====

System: SF-268 CNS
test_method_notes: NCI tumour cell line growth inhibition, 48 h
assay_readout: TGI

Example cases with answers are listed next.
COC(=O)[C@@H]1CN(C(C)=O)C(=O)N1C(=O)OCc1ccccc1 ... > 100 µM
Cc1[nH]nc(N)c1C(N)=O ... > 100 µM
O=C1c2ccccc2C(=O)N1CCN(CCN1C(=O)c2ccccc2C1=O)Cn1cccn1 ... > 100 µM
CCN(CC)CCNC(=O)c1cc2cc(NC(=O)c3cc4cc(NC(=O)c5cc6cc(N)ccc6[nH]5)ccc4[nH]3)ccc2[nH]1 ... > 100 µM

Given the compound S=C1CC(c2ccccc2)Sc2ccccc2N1 (stereo unspecified) and test system SF-268 CNS, the measured TGI is > 100 µM

Measured TGI for this entry NC1CCC(Nc2nc(NCc3ccc(-c4cccs4)nc3)c3ncn(C4CCCC4)c3n2)CC1 (stereo unspecified) on SF-268 CNS: 1.08 µM

====

The following molecules are listed with their measured GI50 values.
System: SW-620 colon
test_method_notes: NCI tumour cell line growth inhibition, 48 h

Consider the reported GI50 for these molecules:
c1cc2[nH]ncc2cc1-c1nc2ccc3[nH]ncc3c2c2c1CCCC2 ... 0.441 µM
Cc1ccc(C(SCC(N)C(=O)O)(c2ccc(C)cc2)c2ccc(C)cc2)cc1 (stereo unspecified) ... 1.64 µM
CN(C)c1ccc(N=C2C=CC(=[N+](C)C)C=C2)cc1 ... 6.6 µM

Lab note: `COc1ccc(C(=O)c2cc(OC)c(OC)c(OC)c2)cc1/C=C/C(=O)c1ccc(OC)c(OC)c1` gave GI50 of 0.321 µM

Lab note: `Cc1ccccc1-n1ncc(C(=O)c2ccccc2)c1N` gave GI50 of > 25 µM

====

Tested on: ACHN renal
test_method_notes: NCI tumour cell line growth inhibition, 48 h
assay_readout: GI50

See these solved cases before continuing.
O=[N+]([O-])c1ccccc1N/N=C\c1c[nH]c2ccccc12 ... 13.9 µM
COc1ccc2c(c1)[n+](=O)c(C(=O)c1ccco1)c(C(F)(F)F)n2[O-] ... 0.514 µM
Cc1ccc2ncnc(N(CC(C)C)CC(C)C)c2c1 ... 15.3 µM
O=C1NC(=O)C(=C/C=C/c2ccccc2)C(=O)N1 ... 2.32 µM
CN(C)c1ccc(N=C2C=CC(=[N+](C)C)C=C2)cc1 ... 12.2 µM
C=C(C)[C@@H]1CC[C@]2(C(=O)O)CC[C@]3(C)[C@H](CC[C@@H]4[C@@]5(C)C[C@@H](CC#Cc6ccc(C(F)(F)F)cc6)[C@H](O)C(C)(C)[C@@H]5CC[C@]43C)[C@@H]12 ... 4.04 µM

The compound listed as `C/C(=C\CCc1ccoc1)CC/C=C(\C)CCCN1CCOCC1` has a reported GI50 of 8.24 µM

compound CC(C)(C)C(=O)OCOP(=O)(OCOC(=O)C(C)(C)C)C1CC(O)N(O)C1=O (stereo not drawn) , GI50 observed: 6.04 µM
